For each entry below, report its Kd value.
target: rabOBP3; construct: native mature protein (161 amino acids) purified from rabbit seminal fluid, delipidated with dichloromethane; test: competitive displacement of fluorescent probe 1-NPN; type: binding, Oryctolagus cuniculus
// note: answer is a bare numeric in µM

input: Record request: Kd value, item "CCCCCC/C=C/C=O"
output: 7.8

input: Record request: Kd value, item "O=c1c(O)c(-c2ccc(O)c(O)c2)oc2cc(O)cc(O)c12"
output: 2.2

input: Record request: Kd value, item "CC(C)=CCC/C(C)=C/CO"
output: 11.2

Every entry's value here was drawn from paper PMC4229146.
